# protocol: Apparent permeability across apical to basolateral side in dog MDCKI cells at 10 uM measured after 60 to 180 mins by lucifer yellow dye based LC-MS/MS analysis
# Type: ADME, cell-based, Canis lupus familiaris
# measurement.context: MDCK
recorded.endpoint: Papp A→B at 10 µM
Returns: string containing the number followed by the unit.

{"columns": ["structure.notation", "observed.result"],
 "data": [
  ["CC(C)(O)[C@H](F)CN1Cc2cc(NC(=O)c3cnn4cccnc34)c(N3CCN(C4CC(F)(F)C4)CC3)cc2C1=O", "11.2 ×10⁻⁶ cm/s"],
  ["CN1Cc2cc(NC(=O)c3cnn4cccnc34)c(N3CCOCC3)cc2C1=O", "11.2 ×10⁻⁶ cm/s"]
]}

// field: Papp A→B at 10 µM; key: CC(C)(O)CCN1Cc2cc(NC(=O)c3cnn4cccnc34)c(N3CCOCC3)cc2C1=O ; value = 4.8 ×10⁻⁶ cm/s

Quick note, Papp A→B at 10 µM for CC(C)(O)[C@H](F)CN1Cc2cc(NC(=O)c3cnn4cccnc34)c(N3CCN(CC(F)F)CC3)cc2C1=O landed at 5.1 ×10⁻⁶ cm/s

// recorded Papp A→B at 10 µM for CN1Cc2cc(NC(=O)c3cnn4cccnc34)c(N3CCOCC3)cc2S1(=O)=O : 17.3 ×10⁻⁶ cm/s
